- TARGET: PARP7 (Homo sapiens, UniProt Q7Z3E1)
- EXPERIMENT_SUMMARY: Probe Displacement Assay for PARP7 (MSD electrochemiluminescent, biotinylated probe RBNO11147)
- CONDITION_DESCRIPTION: displacement of biotinylated probe RBNO11147 from PARP7 NAD+-binding site; read-out: MSD ProbeDisp PARP7 IC50
Could you please mark met for values of IC50 below 300 pM and not met for values at or above it?

Please let me know if C[C@@H](CCCn1ccc2cc(-c3cc(N)c(C(F)(F)F)cn3)c(F)cc2c1=O)Nc1cn[nH]c(=O)c1C(F)(F)F shows IC50 below 300 pM. not met

Say whether its IC50 is strictly beneath 300 pM. Entry: C[C@@H](CCCn1ccc2cc(-c3ncc(C(F)(F)F)s3)c(F)cc2c1=O)Nc1cn[nH]c(=O)c1C(F)(F)F met

Here's an entry: C[C@@H](CCCn1ccc2cc(-c3ncc(C(F)F)c(N)n3)c(F)cc2c1=O)Nc1cn[nH]c(=O)c1C(F)(F)F . Is its IC50 below 300 pM? not met

Identify whether the molecule C[C@@H](CCCn1ccc2cc(-c3ccc(C(F)(F)F)cn3)c(F)c(F)c2c1=O)Nc1cn[nH]c(=O)c1C(F)(F)F records IC50 below 300 pM. not met

Hi there! Is IC50 for C[C@@H](CCCn1cnc2cc(-c3ncc(C(F)(F)F)c(N4C[C@@H](O)[C@@H]4C)n3)c(F)cc2c1=O)Nc1cn[nH]c(=O)c1C(F)(F)F below 300 pM, do you know? met

# check: IC50 < 300 pM for CC[C@@H](CCCn1cnc2cc(-c3ncc(C(F)(F)F)cn3)c(F)cc2c1=O)Nc1cn[nH]c(=O)c1C(F)(F)F met

###

- TARGET: UniProt Q7Z3E1
- EXPERIMENT_SUMMARY: Probe Displacement Assay for PARP7 (MSD electrochemiluminescent, biotinylated probe RBNO11147)
- CONDITION_DESCRIPTION: displacement of biotinylated probe RBNO11147 from PARP7 NAD+-binding site; read-out: MSD ProbeDisp PARP7 IC50
Rule: measured IC50 below 0.6 nM gets True; anything equal to or greater than 0.6 nM gets False.

Please check: IC50 for C[C@@H](CCCn1ccc2cc(-c3ccc(F)cn3)c(F)c(F)c2c1=O)Nc1cn[nH]c(=O)c1C(F)(F)F , strictly under 0.6 nM or not? False

Determine whether this molecule shows IC50 lower than 0.6 nM (ties excluded): C[C@@H](CCCn1ccc2cc(-c3nc(C(F)(F)F)n(C)n3)c(F)cc2c1=O)Nc1cn[nH]c(=O)c1C(F)(F)F True

Dear colleague, could you confirm whether IC50 of O=c1[nH]ncc(N[C@H](CCCn2ccc3cc(-c4ncc(Cl)cn4)c(F)cc3c2=O)COC(F)F)c1C(F)(F)F falls below 0.6 nM? Thanks. True

Answer whether the molecule O=c1[nH]ncc(N2C[C@H]3C[C@H]3[C@H]2CCCn2ccc3cc(-c4ccc(C(F)(F)F)cn4)cc(F)c3c2=O)c1C(F)(F)F has IC50 strictly less than 0.6 nM False

Given C[C@@H](CCCn1ccc2cc(-c3ncc(OC(F)F)cn3)c(F)c(F)c2c1=O)Nc1cn[nH]c(=O)c1C(F)(F)F , is recorded IC50 strictly lower than 0.6 nM? True

Dear colleague, could you confirm whether IC50 of C[C@@H](CCCn1ccc2cc(-c3ccc(S(C)(=N)=O)cn3)cc(F)c2c1=O)Nc1cn[nH]c(=O)c1C(F)(F)F (stereo partly drawn) falls below 0.6 nM? Thanks. False

###

For each entry below, report its EC50 value.
- Test system: endogenous cellular STAT1 (phosphorylated at Tyr701) in NCI-H1373 cells
- EXPERIMENT_SUMMARY: Phospho-STAT1 (Tyr701) LANCE Ultra TR-FRET Detection Assay
- Type: cell-based
- CONDITION_DESCRIPTION: 48 hours, phospho-STAT1 (Tyr701) induction, read-out: NH1373 pSTAT1 EC50
Number in nM, nothing else.

State, in one line, measured EC50 of Cc1cnc(-c2cc3ccn(C[C@@H]4CCC[C@H](Nc5cn[nH]c(=O)c5C(F)(F)F)C4)c(=O)c3cc2F)nc1 [Example 240] 4.35

Read the entry C[C@@H](CCCn1ccc2cc(-c3ncc(C(F)(F)F)c(N)n3)c(F)cc2c1=O)Nc1cn[nH]c(=O)c1C(F)(F)F [Example 128] and write its reported EC50. 16.7

Read the entry C[C@@H](CCCn1ccc2cc(-c3ncc(C(F)(F)F)c(N)n3)c(F)cc2c1=O)Nc1cn[nH]c(=O)c1C(F)(F)F [Example 100] and write its reported EC50. 4.35

Return the recorded EC50 value; entry: Cc1cnc(-c2cc3ccn(C[C@@H]4CCC[C@H](Nc5cn[nH]c(=O)c5C(F)(F)F)C4)c(=O)c3cc2F)nc1 [Example 242] 9.44

###

- TARGET: PARP7 (Homo sapiens, UniProt Q7Z3E1)
- Sequence (Q7Z3E1 1-657): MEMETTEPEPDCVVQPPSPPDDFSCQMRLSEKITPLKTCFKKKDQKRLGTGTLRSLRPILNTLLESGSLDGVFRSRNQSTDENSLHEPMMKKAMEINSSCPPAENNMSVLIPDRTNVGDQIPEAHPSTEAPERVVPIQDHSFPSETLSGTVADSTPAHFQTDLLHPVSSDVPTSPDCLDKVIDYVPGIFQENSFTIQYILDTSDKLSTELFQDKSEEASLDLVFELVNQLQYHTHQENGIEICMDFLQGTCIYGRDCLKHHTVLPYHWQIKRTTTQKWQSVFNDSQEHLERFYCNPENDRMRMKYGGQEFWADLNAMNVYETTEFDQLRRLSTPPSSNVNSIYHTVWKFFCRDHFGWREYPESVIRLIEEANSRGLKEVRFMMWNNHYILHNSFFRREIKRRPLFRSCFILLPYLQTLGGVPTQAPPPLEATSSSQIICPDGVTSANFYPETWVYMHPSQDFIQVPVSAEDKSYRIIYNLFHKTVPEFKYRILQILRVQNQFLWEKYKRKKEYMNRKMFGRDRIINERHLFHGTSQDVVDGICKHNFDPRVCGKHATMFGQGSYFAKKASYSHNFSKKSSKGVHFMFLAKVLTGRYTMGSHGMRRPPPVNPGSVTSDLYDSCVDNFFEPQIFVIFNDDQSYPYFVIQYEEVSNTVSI
- EXPERIMENT_SUMMARY: Probe Displacement Assay for PARP7 (MSD electrochemiluminescent, biotinylated probe RBNO11147)
- CONDITION_DESCRIPTION: displacement of biotinylated probe RBNO11147 from PARP7 NAD+-binding site; read-out: MSD ProbeDisp PARP7 IC50
OBSERVED_PROPERTY: IC50 (nM)
Please give a number only; it is taken to be in nM.

Return IC50 (reported value) for this compound: CC[C@@H](CCCn1ccc2cc(-c3ncc(C(F)(F)F)cn3)c(F)cc2c1=O)Nc1cn[nH]c(=O)c1C(F)(F)F 0.4

Give the measured IC50 for O=c1[nH]ncc(N[C@H](CCCn2ccc3cc(-c4ncc(C(F)F)cn4)c(F)cc3c2=O)COC(F)F)c1C(F)(F)F 0.179

Give reported IC50 value for C[C@@H](CCCn1ccc2cc(-c3nc4ccccc4o3)c(F)cc2c1=O)Nc1cn[nH]c(=O)c1C(F)(F)F 0.352

Determine its reported IC50: C[C@@H](CCCn1ccc2cc(-c3ncc(C(F)(F)F)cn3)c(F)cc2c1=O)Nc1cn[nH]c(=O)c1C(F)(F)F 0.2

Recall and state the measured IC50 for Cc1cc(NC2CC2)nc(-c2cc3ccn(CCC[C@H](C)Nc4cn[nH]c(=O)c4C(F)(F)F)c(=O)c3cc2F)n1 . 1.3

Return IC50 (reported value) for this compound: C[C@@H](CCCn1ccc2c(F)c(-c3ncc(C(F)(F)F)cn3)ccc2c1=O)Nc1cn[nH]c(=O)c1C(F)(F)F 0.7

State its IC50 for this compound: C[C@@H](CCCn1c(=O)[nH]c2cc(-c3ncc(C(F)(F)F)cn3)c(F)cc2c1=O)Nc1cn[nH]c(=O)c1C(F)(F)F 0.3

Query IC50 for C[C@@H](CCCn1ccc2cc(-c3ncc(CN)cn3)c(F)cc2c1=O)Nc1cn[nH]c(=O)c1C(F)(F)F 2.06

Please give the documented IC50 of C[C@@H](CCCn1ccc2cc(-c3ncc(C(F)(F)F)cn3)c(F)c(F)c2c1=O)Nc1cn[nH]c(=O)c1C(F)(F)F 0.3

Find the measured IC50 of C[C@@H](CCCn1ccc2cc(-c3ccc(CC(F)(F)F)cn3)cc(F)c2c1=O)Nc1cn[nH]c(=O)c1C(F)(F)F and report it. 3.7

Give the value of IC50 reported for the following: Nc1nc(-c2cc3ccn(C[C@@H]4CCC[C@H](Nc5cn[nH]c(=O)c5C(F)(F)F)C4)c(=O)c3cc2F)ncc1C(F)(F)F 0.311

Using known records, supply IC50 for C[C@@H](CCCn1ccc2cc(-c3cccc4c3OCCO4)c(F)cc2c1=O)Nc1cn[nH]c(=O)c1C(F)(F)F 25

Read the entry O=c1[nH]ncc(N[C@H](CCCn2ccc3cc(-c4ncc(C(F)(F)F)cn4)c(F)cc3c2=O)COC(F)F)c1C(F)(F)F and write its reported IC50. 0.256

Respond only with IC50 recorded for C[C@@H](CCCn1ccc2cc(-c3ccc(C(F)(F)F)cn3)cc(F)c2c1=O)Nc1cn[nH]c(=O)c1C(F)(F)F 0.2

Indicate its recorded IC50; the compound in question is C[C@@H](CCCn1ccc2cc(-c3ncc(C(F)F)cn3)c(F)cc2c1=O)Nc1cn[nH]c(=O)c1C(F)(F)F 0.41

Using known records, supply IC50 for C[C@@H](CCCn1cnc2cc(-c3ncc(C(F)(F)F)c(N4CC(C#N)C4)n3)c(F)cc2c1=O)Nc1cn[nH]c(=O)c1C(F)(F)F 0.188

Give recorded IC50. C[C@@H](CCCn1ccc2cc(-c3ccc(C(F)F)cn3)c(F)cc2c1=O)Nc1cn[nH]c(=O)c1C(F)(F)F 0.5

Provide IC50 value for the following compound: C[C@@H](CCCn1ccc2cc(-c3nc4ccccn4n3)c(F)cc2c1=O)Nc1cn[nH]c(=O)c1C(F)(F)F 0.21

State, in one line, measured IC50 of C[C@@H](CCCn1ccc2cc(-c3ncc(C(F)(F)F)cn3)cnc2c1=O)Nc1cn[nH]c(=O)c1C(F)(F)F 23

Query IC50 for C[C@@H](CCCn1ccc2cc(-c3ccc(OC(F)(F)F)cn3)c(F)cc2c1=O)Nc1cn[nH]c(=O)c1C(F)(F)F 2.6

Return reported IC50. Input compound: O=c1[nH]ncc(N[C@H](CCCn2ccc3cc(-c4ncc(C(F)(F)F)cn4)c(F)cc3c2=O)C2CC2)c1C(F)(F)F 0.7

Answer with the recorded IC50 of C[C@@H](CCCn1ncc2cc(-c3ncc(C(F)(F)F)cn3)ccc2c1=O)Nc1cn[nH]c(=O)c1C(F)(F)F only. 0.2

Name the recorded IC50 of the compound listed here: C[C@@H](CCCn1ccc2cc(-c3ncc4cn[nH]c4n3)c(F)cc2c1=O)Nc1cn[nH]c(=O)c1C(F)(F)F 0.221

Provide one value: measured IC50 of C[C@@H](CCCn1cnc2cc(-c3ncc(F)cn3)c(F)cc2c1=O)Nc1cn[nH]c(=O)c1C(F)(F)F 0.897

Determine its reported IC50: C[C@@H](CCCn1ccc2cc(-c3ccc(C(N)C(F)(F)F)cn3)c(F)cc2c1=O)Nc1cn[nH]c(=O)c1C(F)(F)F (stereo partly drawn) 2.13

Hello, please tell me recorded IC50 for this one: C[C@@H](CCCn1ccc2cc(-c3ccc(OC(F)F)cn3)cc(F)c2c1=O)Nc1cn[nH]c(=O)c1C(F)(F)F 0.4

Please report the measured IC50 for C[C@@H](CCCn1ccc2c(F)c(-c3ccc(C(F)(F)F)cn3)ccc2c1=O)Nc1cn[nH]c(=O)c1C(F)(F)F 0.7
